Source listed as PubChem BioAssay (NCI).

tested on: NCI/ADR-RES ovarian; experiment: NCI tumour cell line growth inhibition, 48 h; in the data active = GI50 below about 0.43 µM; inactive = the rest
# valid calls are yes = active, no = inactive; nothing else

Past entries and their recorded results:
>>> group_label("Cc1ccnc2c1ccc1c(C)ccnc12")
"yes"
>>> group_label("O=C(Nc1ccc(F)cc1)Nc1ccc(Cl)c([N+](=O)[O-])c1")
"no"

Exam item: I would be grateful if you could indicate the recorded call for OC1CSSC1Cn1cnc2c(Nc3ccc(OCc4cccc(F)c4)c(Cl)c3)ncnc21 (stereo unspecified) .
Marked response: no

Exam item: Which outcome was assigned to Nc1ccccc1C#C/C=C\C#Cc1ccccc1OC(F)(F)F in this test?
Marked response: no

Exam item: Which result was noted for this molecule in the test: CC(=O)OC1OC([C@@H]2c3cccc(O)c3C(=O)c3c(O)cc(C)cc32)C(O)C(O)C1O (stereo partly specified)
Marked response: yes

Exam item: Please share the test call associated with Cc1nc2sccn2c1-c1csc(Nc2ccccc2Cl)n1 .
Marked response: no

* * *

Listed here are compounds together with their documented TGI.
test system: COLO 205 colon; assay: NCI tumour cell line growth inhibition, 48 h

>>> value_reported("[N-]=[N+]=NC[C@H]1OCO[C@H](CN=[N+]=[N-])[C@@H](OCCOCCCl)[C@@H]1OCCOCCCl")
"> 100 µM"
>>> value_reported("CCCC1C(=O)CCc2c(OC)ccc(OC)c21 (stereo unspecified)")
"> 100 µM"

Exam item: # query: TGI of entry Cc1ccc(Cl)c2[nH]c(-c3ccccc3)cc(=O)c12
Marked response: > 100 µM

Exam item: Entry under review: CCCCCCc1cc2cc(-c3csc(CC#N)n3)c(=O)oc2cc1O . Reported TGI?
Marked response: > 100 µM

Exam item: TGI lookup needed for COc1ccc(N/N=C2\CCOc3ccc(C)cc3C2=O)cc1 , thanks.
Marked response: > 100 µM

Exam item: Given the entry Cc1ccc(N=NC(=Nc2ccccc2)c2ccc(N(CCC#N)CCC#N)cc2)cc1 , report its measured TGI.
Marked response: > 100 µM

* * *

log10 TGI for assorted molecules
tested on: HCC-2998 colon; experiment: NCI tumour cell line growth inhibition, 48 h
Would you kindly interpret these values as log10 of TGI expressed in µM?

>>> value_reported("O=C1CSC(c2ccc(Cl)cc2)N1c1ccc(Oc2ccc(Cl)cc2)c(Cl)c1 (stereo unspecified)")
1.52
>>> value_reported("COc1ccc2c(c1)sc1nc(-c3ccccc3)c(-c3cccc4ccccc34)n12")
1.56
>>> value_reported("COc1cccc(C2c3cc4c(cc3OC(C)(N3CCCC3)C2C)OCO4)c1O (stereo unspecified)")
1.41
>>> value_reported("FC(F)(F)c1cccc(Nc2nc(-c3ccccc3)nc3ncccc23)c1")
1.48
>>> value_reported("Nc1nc(SCCc2ccccc2)c2[nH]cnc2n1")
1.97
>>> value_reported("COc1ccc(C2CC(c3c(O)ccc4ccccc34)=NN2C(C)=O)cc1OC (stereo unspecified)")
1.73
>>> value_reported("Cc1ccsc1C(=S)Nc1ccc(Cl)c(/C=N/OC(C)(C)C)c1")
1.69
>>> value_reported("CN1CCc2cc(N)cc3c2C1Cc1ccc(O)c(O)c1-3 (stereo unspecified)")
1.52

Exam item: Reported log10 TGI, molecule COc1cc(/C=N\NC(=O)CN2CCN(c3cc4c(cc3F)c(=O)c(C(=O)N/N=C/c3cc(OC)c(OC)c(OC)c3)cn4C3CC3)CC2)cc(OC)c1OC : ____
Marked response: -0.48
